Recorded PET hydrolysis for the following sequences
- experiment_notes: PET hydrolysis, aromatic products released after 48 h (umol product/mg enzyme); higher = more PET depolymerization activity
- measurement_parameters: substrate: cryPow; 40 °C; pH 6.5
assay_metric: PET hydrolysis

[
  {
    "chain": "ADNPYQRGPDPTQSSVSASRGTFATAQVGVPAGNGFGGGVIYHPTDTSQGTFGAVAIVPGYTATWAAEGAWMGHWLASFGFVVIGIDTNNRNDWDTARGTQLLAALDYLTQRSSVRDRVDPSRTAVMGHSMGGGGAMYAALQRPSLKTAVGLAPFSPSQNLTTTRVPTMLLSGQNDTTTTPASIVNLYNGIPSSVEKAYLELTGAGHGFPTSNNSTMMRNVIPWLKIFVDSDTRYTQFLCPLSDSNGIRTYQNTCPLVPSPVPTTTSTTSSTSTTTTSTTTTTTTSVPVGACSATYRTTNAWSGGYQGEVTVAAGDSAVNGWTVRWTLDSGQTISQVWNGTLSATGSAVSVRNASYNGSLRPGTSTTFGFIAGGAPSTPVLSCTSP [DP072]",
    "assay_metric": "PET hydrolysis",
    "inequality_symbol": "=",
    "value_measured": 8
  },
  {
    "chain": "AGNPYQRGPDPTLASVAASRGTFATAQVSVPPGNGFNGGTIYYPTDTTQGTWGAVAIVPGYTALFANEEAWMGPWLASFGFVVIGIETNSRNDFDTARGTQLLAALDYLTQKSPVRDRVDSARLGVIGHSMGGGGVVYATEHRPSLKAAVALAPFSPSQDMSTDHVPTMVMAGQNDTVVTPSYLDGLYATMPASAQSDFVQLAGADHVAYTHPNTTEMRLLIPWLKIFLDDDTRYTQFLCPLKDSTGVSMYRAKCPYVPPGGPTTSPTPTTTPTPPDGGACSATYRTVNSWSGGYQGEITVTAGGAAIDGWTVRWSLGGGQTVTQVWNGTLSTSGSTASVANASYNGSLQASASTTFGFLANGTPSTPALTCSSP [ESM084]",
    "assay_metric": "PET hydrolysis",
    "inequality_symbol": "<",
    "value_measured": 3
  }
]
